Measured values drawn from ChEMBL document CHEMBL2057099 for this set.

- experiment.description: Metabolic stability in human liver microsomes assessed as compound remaining after 1 hr
- Assay type: ADME, Microsome
- conditions: read-out: Stability
assay.readout: remaining at 1 h

Which value of remaining at 1 h has been reported for CONC(=O)[C@H]1[C@@H](O)[C@@]2(O)c3c(OC)cc(OC)cc3O[C@@]2(c2ccc(OC)cc2)[C@@H]1c1ccccc1 in the records?
> 95%

###

- test.system: Eukaryotic initiation factor 4A-I (Homo sapiens, UniProt P60842)
- Sequence (P60842 whole entry): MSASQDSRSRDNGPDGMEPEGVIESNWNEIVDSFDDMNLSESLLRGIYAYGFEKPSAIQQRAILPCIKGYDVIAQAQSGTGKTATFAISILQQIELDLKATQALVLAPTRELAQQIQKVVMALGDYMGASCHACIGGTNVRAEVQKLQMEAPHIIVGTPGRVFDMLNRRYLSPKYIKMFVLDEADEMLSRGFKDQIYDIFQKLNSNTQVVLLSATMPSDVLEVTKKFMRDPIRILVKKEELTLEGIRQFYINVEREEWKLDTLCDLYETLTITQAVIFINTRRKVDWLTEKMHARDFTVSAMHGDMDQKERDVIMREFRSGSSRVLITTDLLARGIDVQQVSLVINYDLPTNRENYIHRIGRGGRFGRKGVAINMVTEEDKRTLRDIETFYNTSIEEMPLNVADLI
- experiment.description: Inhibition of eIF4A1-mediated protein synthesis in human BJAB cells assessed as inhibition of [35S]Met incorporation after 1 hr by scintillation counting
- Type: cell-based
assay.readout: pIC50
pIC50 field: float, defined as -log10 of concentration (mol/L).

Need pIC50 of CONC(=O)[C@H]1[C@@H](O)[C@@]2(O)c3c(OC)cc(OC)cc3O[C@@]2(c2ccc(OC)cc2)[C@@H]1c1ccccc1 , thanks.
7.70

###

- test.system: Eukaryotic initiation factor 4A-I (Oryctolagus cuniculus) (UniProt P29562)
- Sequence (P29562 whole entry): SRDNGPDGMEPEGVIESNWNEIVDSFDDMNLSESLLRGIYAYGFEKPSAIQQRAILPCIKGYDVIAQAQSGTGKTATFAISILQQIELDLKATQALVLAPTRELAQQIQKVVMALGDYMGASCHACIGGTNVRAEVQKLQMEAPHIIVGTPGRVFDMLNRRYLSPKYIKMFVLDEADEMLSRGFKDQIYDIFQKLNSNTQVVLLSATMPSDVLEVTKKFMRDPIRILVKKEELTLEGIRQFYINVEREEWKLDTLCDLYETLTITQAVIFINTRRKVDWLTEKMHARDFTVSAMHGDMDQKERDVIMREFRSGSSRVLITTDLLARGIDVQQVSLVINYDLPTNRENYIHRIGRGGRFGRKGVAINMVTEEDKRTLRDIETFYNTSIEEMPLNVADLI
- experiment.description: Inhibition of eIF4A1-mediated FF/HCV/Ren cap-dependent mRNA translation in rabbit reticulocyte lysate by reporter gene assay
Activity calls are given as the source filed them. No cut-off for these calls is given here.
// one of active, inactive, no free text

// param item: COc1ccc(C23Oc4cc(OC)cc(OC)c4C2(O)C(O)C(C(=O)NOCC2CC2)C3c2ccccc2)cc1 (racemic) ; yields the recorded call
active

And then CONC(=O)C1C(O)C2(O)c3c(OC)cc(OC)cc3OC2(c2ccc(OC)cc2)C1c1ccccc1 (racemic) , what is it?
active

Would you mind doing CONC(=O)[C@@H]1[C@H](O)[C@]2(O)c3c(OC)cc(OC)cc3O[C@]2(c2ccc(OC)cc2)[C@H]1c1ccccc1 as well?
inactive

Check COc1ccc(C23Oc4cc(OC)cc(OC)c4C2(O)C(O)C(C(=O)NOCCO)C3c2ccccc2)cc1 (racemic) too.
active

// repeat for CONC(=O)[C@H]1[C@@H](O)[C@@]2(O)c3c(OC)cc(OC)cc3O[C@@]2(c2ccc(OC)cc2)[C@@H]1c1ccccc1 and report
active

Thanks! And COc1ccc(C23Oc4cc(OC)cc(OC)c4C2(O)C(O)C(C(=O)NOCCOCCOCCNC(C)=O)C3c2ccccc2)cc1 (racemic) ?
active

Now this one: COc1ccc([C@@]23Oc4cc(OC)cc(OC)c4[C@]2(O)[C@H](O)[C@H](C(=O)c2ccc(CO)o2)[C@H]3c2ccccc2)cc1
active

###

- experiment.description: Metabolic stability in human plasma assessed as compound remaining after 3 hrs
- Type: ADME, cell-free
- conditions: read-out: Stability
assay.readout: remaining at 3 h (%)
State just the number; it will be interpreted in %.

May I ask what remaining at 3 h has been recorded for CONC(=O)[C@H]1[C@@H](O)[C@@]2(O)c3c(OC)cc(OC)cc3O[C@@]2(c2ccc(OC)cc2)[C@@H]1c1ccccc1 ?
100

###

- experiment.description: Metabolic stability in mouse liver microsomes assessed as compound remaining after 1 hr
- Type: ADME, Microsome
- conditions: read-out: Stability
assay.readout: remaining at 1 h

So what's the measured remaining at 1 h for this one? CONC(=O)[C@H]1[C@@H](O)[C@@]2(O)c3c(OC)cc(OC)cc3O[C@@]2(c2ccc(OC)cc2)[C@@H]1c1ccccc1
> 95%
